# Species on record: Homo sapiens
# MEASUREMENT_PROTOCOL: In vitro ability to cause dose dependent inhibition of arachidonic acid (AA) conversion to thromboxane A2 (TXA2 )
# Assay type: functional
# CONDITION_INFO: read-out: I50
MEASURE_NAME: pIC50
# log scale: pIC50 equals minus log10 of the concentration in mol/L

pIC50 for CCCCCCOC[C@@H]1C2CCC(O2)[C@H]1C/C=C\CCCC(=O)O (stereo in doubt; 1) ? 5.20

###

# Species: Homo sapiens
# MEASUREMENT_PROTOCOL: In vitro inhibition of arachidonic acid induced platelet aggregation of human platelet-rich plasma
# Assay type: functional
# CONDITION_INFO: read-out: I50
MEASURE_NAME: IC50 (µM)
Reply with just the number (in µM).

IC50 for CCCCCC(C)OCC1C2CCC(O2)C1C/C=C\CCCC(=O)O (stereo in doubt; form 2) ? 3.2

Moving on to CCCCCC(C)OCC1C2CCC(O2)C1C/C=C\CCCC(=O)O (stereo in doubt; form 1) 23

Moving on to CCCCCCOC[C@@H]1C2CCC(O2)[C@H]1C/C=C\CCCC(=O)O (stereo in doubt; 11) 18

Moving on to CCCCCCOC[C@@H]1C2CCC(O2)[C@H]1C/C=C\CCCC(=O)O (stereo in doubt; 9) 25

###

# Species on record: Homo sapiens
# MEASUREMENT_PROTOCOL: In vitro ability to inhibit adenosine diphosphate induced platelet aggregation (ADPIPA) of human platelet-rich plasma (PRP)
# Format: functional
# CONDITION_INFO: read-out: I50
MEASURE_NAME: IC50 (µM)
Reply with just the number (in µM).

IC50 for CCCCC[C@H](O)/C=C/[C@@H]1C2CCC(O2)[C@@H]1C/C=C\CCCC(=O)O (some centres not stated) ? 300
